Value source: the supplement of paper PMC13386468

Experimental System: UniProt Q8IBZ2
Assay Name: IC50 for competition of protein binding to Kinobeads;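 further: native unpurified kinases from lysate captured on beads bearing immobilized kinase inhibitors, with bead-bound kinases quantified by mass spectrometry across compound doses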
Experimental Setup: assay detail: Kinobeads competition in P. falciparum blood-stage lysate
Readout Type: IC50

Query: State, in one line, measured IC50 of O=c1[nH]c2ccc(Cl)cc2c(NC2CN3CCC2CC3)c1-c1nc2ccccc2[nH]1 (stereo unspecified)
Reply: > 20 µM

###

Experimental System: UniProt Q8IDR9
Assay Name: IC50 for competition of protein binding to Kinobeads
Experimental Setup: assay detail: Kinobeads competition in P. falciparum blood-stage lysate
pIC50: −log10 of the molar value.
Readout Type: pIC50

Query: Tell me its pIC50 on UniProt Q8IDR9: O=c1[nH]c2ccc(Cl)cc2c(NC2CN3CCC2CC3)c1-c1nc2ccccc2[nH]1 (stereo unspecified)
Reply: < 4.70
